Please respond with reported IC50 for every item in the list.
Tested on: t-HSC/Cl-6 cells
Test: MTT cell proliferation assay, activated t-HSC/Cl-6 cells
Format: cell-based, human
Details: 36 h, mean ± SD, read-out: Inhibitory activity (IC50) in activated t-HSC/Cl-6 cells
Give your result in µM as a bare value.

[in] Observed IC50 on t-HSC/Cl-6 cells for CC(C)=CCCC(O)(COC1OC(CO)C(O)C(O)C1O)C1CCC2(C)C1CCC1C3(C)CCC(OC4OC(CO)C(O)C(OC5OCC(O)C(O)C5O)C4OC4OC(C)C(O)C(O)C4O)C(C)(C)C3CCC12C (centres unmarked) , please.
[out] 106

[in] Observed IC50 on t-HSC/Cl-6 cells for CC(C)=CC1CC(O)(C2CCC3(C)C2CCC2C4(C)CCC(OC5OC(CO)C(O)C(OC6OCC(O)C(O)C6O)C5OC5OC(C)C(O)C(O)C5O)C(C)(C)C4CCC23C)C(=O)O1 (centres unmarked) , please.
[out] 99.9
